# Tested on: KM12 colon
# assay-text: NCI tumour cell line growth inhibition, 48 h
Field: TGI. Provide a value for each of the molecules that follow.

Exercise: Field request: TGI | item: `COc1cccc(-c2nn(-c3ccccc3)cc2-c2ccnc(NCCCNS(=O)(=O)c3ccc(C(F)(F)F)cc3)c2)c1`
Key: > 100 µM

Exercise: Field request: TGI | item: `CCOC(=O)c1cc2c(n1Cc1ccccc1OC)-c1oncc1CCC2`
Key: > 100 µM

Exercise: Field request: TGI | item: C/C(=C\CC/C=C(\C)CC/C=C(\C)CCC1SC1(C)C)CC/C=C(\C)CCC1OC1(C)C (stereo unspecified)
Key: > 100 µM

Exercise: Field request: TGI | item: `CCOC(=O)c1csc(-c2cn(C)c3c2C(=O)C(OC)=CC3=O)n1`
Key: > 71.8 µM

Exercise: Field request: TGI | item: `CCCCCC(/C=C/c1ncccc1OCCCCCC(=O)O)=N\NC1=NCCN1`
Key: > 100 µM

Exercise: Field request: TGI | item: Cc1nn(C(=O)c2ccc(Cl)cc2)c2c1C(c1ccc(Cl)cc1)SC(N)=N2 (stereo unspecified)
Key: > 10 µM

Exercise: Field request: TGI | item: O=c1[nH]c(=O)n(C2CC(O)C(COP(=O)(OCC(Cl)(Cl)Cl)OCC(Cl)(Cl)Cl)O2)cc1F (stereo unspecified)
Key: > 100 µM

Exercise: Field request: TGI | item: `COC(=O)[C@H](CCCCNC(=O)OCc1ccccc1)NC(=O)[C@@H](NC(=O)Nc1cc(C(F)(F)F)cc(C(F)(F)F)c1)C(C)C`
Key: > 10 µM

Exercise: Field request: TGI | item: Cc1ccc(O)c(C2=NNC(c3cccc(Cl)c3)C2)c1 (stereo unspecified)
Key: > 100 µM

Exercise: Field request: TGI | item: COc1ccc(N[C@@H]2c3cc4c(cc3C(c3cc(OC)c(O)c(OC)c3)[C@H]3C(=O)OCC32)OCO4)cc1OC (stereo partly specified)
Key: > 21.8 µM

Exercise: Field request: TGI | item: `CCC(=O)CCC1=Nc2nnc(CCCCc3nnc4n3C(=O)C(CCC(=O)CC)=N4)n2C1=O`
Key: > 100 µM
